Experiment: Solubility of the isolated product
Details: water
So I've got a bunch of molecules here, and I need their solubility values.
Numbers only, in mg/mL.

Below, each entry is followed by its recorded solubility result.
# Molecule, Experimental endpoint, Readout number
data = [
    ("CC(CNC(C)(C)CO)Oc1ccc(Oc2ccc(Cl)cc2)cc1.Cl (racemic) [CRL 40 302]", "solubility", 200),
    ("CC(CNCCO)Oc1ccc(Oc2ccc(Cl)cc2)cc1.Cl (racemic) [CRL 40 301]", "solubility", 200),
]

Input line: Which solubility reading was recorded for the molecule Cl.OCCNCCOc1ccc(Oc2ccc(Cl)cc2)cc1 [CRL 40,295] ?
Output line: 200
